Target: benzodiazepine site of the GABA-A receptor
Assay: Benzodiazepine Receptor Binding Assay (inhibition of 3H-flunitrazepam binding)
Settings: 3H-flunitrazepam ca. 3 nM
Please use Y for IC50 under 4 nM and N for everything else, ties included.

Answered cases to consult:
compound=O=C1CCN2C(=C1C(=O)Nc1ccccc1F)N(CC1CC1)c1cc3ccccc3cc12 group=Y
compound=CCOCCN1C2=C(C(=O)Nc3c(F)cccc3F)C(=O)CCN2c2ccc3ccccc3c21 group=Y
compound=COCCN1C2=C(C(=O)Nc3c(F)cccc3F)C(=O)CCN2c2ccc3ccccc3c21 group=Y
compound=CCN1C2=C(C(=O)Nc3nccs3)C(=O)CCN2c2cc3ccccc3cc21 group=N
compound=CCOCN1C2=C(C(=O)Nc3ccccc3F)C(=O)CCN2c2cc3ccccc3cc21 group=Y

INPUT: Criterion: IC50 strictly below 4 nM. Is it met by "COCCN1C2=C(C(=O)Nc3ccccc3F)C(=O)CCN2c2ccc3ccccc3c21" ?
OUTPUT: N

INPUT: Criterion: IC50 strictly below 4 nM. Is it met by O=C1CCN2C(=C1C(=O)Nc1c(F)cccc1F)Nc1c2ccc2ccccc12 [Example 23] ?
OUTPUT: N

====

// minimal effective dose lookup, one value per entry
System: behavior suppressed by punishment (rat conflict)
Assay: Suppression of Anxiety in the Adult Male Rat (rat conflict, Vogel)
Type: in vivo
Conditions: po, minimum effective dose, Wilcoxon rank-sum test p<0.05, read-out: rat conflict MED

Recorded results for 5 compounds are shown here.
compound_structure=O=C1CCN2C(=C1C(=O)Nc1ccccc1F)Nc1c2ccc2ccccc12 reported_property="minimal effective dose" reported_measurement="> 10 mg/kg"
compound_structure=COCCN1C2=C(C(=O)Nc3c(F)cccc3F)C(=O)CCN2c2ccc3ccccc3c21 reported_property="minimal effective dose" reported_measurement="> 3 mg/kg"
compound_structure=COCCN1C2=C(C(=O)Nc3ccccc3F)C(=O)CCN2c2cc3ccccc3cc21 reported_property="minimal effective dose" reported_measurement="10 mg/kg"
compound_structure=COCCN1C2=C(C(=O)Nc3ccccc3F)C(=O)CCN2c2c1ccc1ccccc21 reported_property="minimal effective dose" reported_measurement="> 10 mg/kg"
compound_structure=O=C1CCN2C(=C1C(=O)Nc1ccccc1F)Nc1ccc3ccccc3c12 reported_property="minimal effective dose" reported_measurement="> 10 mg/kg"

minimal effective dose measured on "CN(CCN1C2=C(C(=O)Nc3c(F)cccc3F)C(=O)CCN2c2cc3ccccc3cc21)Cc1ccccc1" = > 10 mg/kg

minimal effective dose measured on "O=C1CCN2C(=C1C(=O)Nc1ccccc1F)Nc1cc3ccccc3cc12" = > 10 mg/kg

====

Biological target: benzodiazepine site of the GABA-A receptor
Test: Benzodiazepine Receptor Binding Assay (inhibition of 3H-flunitrazepam binding)
Conditions: 3H-flunitrazepam ca. 3 nM
Reported property: pIC50
Note: pIC50 values are expressed as the negative base-10 logarithm of concentration in M.

Recorded results for 3 compounds are shown here.
compound_structure=CCOCN1C2=C(C(=O)Nc3c(F)cccc3F)C(=O)CCN2c2cc3ccccc3cc21 measured_target="benzodiazepine site of the GABA-A receptor" reported_property=pIC50 reported_measurement=7.89
compound_structure=CCN1C2=C(C(=O)Nc3ccccc3F)C(=O)CCN2c2ccc3ccccc3c21 measured_target="benzodiazepine site of the GABA-A receptor" reported_property=pIC50 reported_measurement=7.78
compound_structure=CN(CCN1C2=C(C(=O)Nc3c(F)cccc3F)C(=O)CCN2c2cc3ccccc3cc21)Cc1ccccc1 measured_target="benzodiazepine site of the GABA-A receptor" reported_property=pIC50 reported_measurement=7.24

Let's switch to this compound now.
pIC50 measured on "O=C1CCN2C(=C1C(=O)Nc1ccccc1F)Nc1c2ccc2ccccc12" = 6.81

These measurements were taken from patent US6200984A.
